Would you mind telling me the reported Ki of each entry?
- target_desc: HCV NS3 protease (Hepatitis C virus genotype 1a, UniProt P27958)
- Construct: more particularly HCV NS3 proteases
- Sequence (P27958 1027-1208): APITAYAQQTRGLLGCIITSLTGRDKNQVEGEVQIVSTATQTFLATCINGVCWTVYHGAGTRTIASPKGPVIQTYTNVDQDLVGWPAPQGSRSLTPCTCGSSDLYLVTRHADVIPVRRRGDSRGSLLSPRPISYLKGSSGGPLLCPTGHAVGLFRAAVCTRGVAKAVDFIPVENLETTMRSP
- assay_protocol: Enzyme inhibition of HCV NS3 serine protease (cleavage of peptide substrate / EDVV AbuC-p-nitroanilide, with or without NS4A)
- Type: biochemical

[Q] Item CCC(NC(=O)C(CC(C)C)NC(=O)C(NC(=O)C(NC(=O)c1cnccn1)C(C)C)C(C)C)C(=O)C(=O)N[C@@H](CC)c1ccccc1 (some centres unmarked) [Compound 121] has what recorded Ki?
[A] > 100 µM

[Q] Value lookup for Ki; key = CCC(NC(=O)C1CC(OCc2ccc3ccccc3c2)CN1C(=O)C(NC(=O)C(NC(=O)c1cnccn1)C(C)C)C(C)C)P(=O)(Oc1ccccc1)Oc1ccccc1 (centres unmarked) [Compound 72]
[A] 1 to 100 µM

[Q] Which Ki reading was recorded for the compound CCC(NC(=O)C1CC(OCc2ccc(Cl)c(Cl)c2)CN1C(=O)C(NC(=O)C(NC(=O)c1cnccn1)C(C)C)C(C)C)P(=O)(Oc1ccccc1)Oc1ccccc1 (centres unmarked) [Compound 71] ?
[A] < 1 µM

[Q] State the recorded Ki for this entry: CCC(NC(=O)C1CC(OCc2ccccc2)CN1C(=O)C(NC(=O)C(NC(=O)c1cnccn1)C(C)C)C(C)C)P(=O)(Oc1ccccc1)Oc1ccccc1 (centres unmarked) [Compound 73]
[A] 1 to 100 µM

[Q] What does the record list as Ki for CCC(NC(=O)C(CC(C)C)NC(=O)C(NC(=O)C(NC(=O)c1cnccn1)C(C)C)C(C)C)C(=O)C(=O)N[C@H](CC)c1ccccc1 (some centres unmarked) [Compound 120] ?
[A] 1 to 100 µM
